- RUN DESCRIPTION: CHI Log D procedure
- Type: physicochemical
- CONDITIONS USED: pH 7.4
One threshold, 2, splits the recorded CHI Log D values: lower ones are T, equal or higher ones are F.

[
  {
    "MOLECULE": "CC[C@H](C)[C@@H]1NC(=O)[C@H](CC(=O)O)NC(=O)[C@]2(CC=CCCCC3(CCCC=CCCCCCC[C@@](C)(C(=O)N[C@@H](Cc4ccccc4)C(=O)N[C@@H](Cc4csc5ccccc45)C(=O)N[C@@H](CCC(N)=O)C(N)=O)NC(=O)[C@H](CCC(N)=O)NC(=O)[C@H](Cc4ccccc4)NC(=O)[C@H](C)NC(=O)[C@H](C)NC(=O)[C@H](CCC(=O)O)NC(=O)[C@H](CC(=O)O)NC3=O)NC1=O)CCCN2S(C)(=O)=O (some centres unmarked) [I-710]",
    "ASSIGNED CATEGORY": "F"
  },
  {
    "MOLECULE": "CC(=O)N1CCC[C@]12CC=CCCCC1(CCCC=CCCCCCC[C@@](C)(C(=O)N[C@@H](Cc3ccccc3)C(=O)N[C@@H](Cc3c[nH]c4ccccc34)C(=O)N[C@@H](CCC(N)=O)C(N)=O)NC(=O)[C@H](C(C)C)NC(=O)[C@H](Cc3ccc(C(F)(F)F)cc3)NC(=O)[C@H](C)NC(=O)[C@H](C)NC(=O)[C@H](CC(=O)O)NC(=O)[C@H](CC(=O)O)NC1=O)NC(=O)[C@H](C)NC(=O)[C@H](CC(=O)O)NC2=O (some centres unmarked) [I-243]",
    "ASSIGNED CATEGORY": "F"
  },
  {
    "MOLECULE": "CC(=O)N1CCC[C@]12CC=CCCCC1(CCCC=CCCCCCC[C@@](C)(C(=O)N[C@@H](Cc3ccccc3)C(=O)N[C@@H](Cc3csc4ccccc34)C(N)=O)NC(=O)[C@H](CCCNC(N)=O)NC(=O)[C@H](Cc3ccccc3)NC(=O)[C@H](C)NC(=O)[C@H](C)NC(=O)[C@H](CCC(=O)O)NC(=O)[C@H](CC(=O)O)NC1=O)NC(=O)[C@H](CC(C)C)NC(=O)[C@H](CC(=O)O)NC2=O (some centres unmarked) [I-629]",
    "ASSIGNED CATEGORY": "F"
  },
  {
    "MOLECULE": "CC(=O)N[C@@H](Cc1ccccc1)C(=O)N[C@@H](CC(=O)O)C(=O)N[C@@H](C)C(=O)N[C@]1(C)CCCCCCC=CCOC(=O)N2CC[C@@](C(=O)N[C@@H](Cc3cccnc3)C(=O)N[C@@H](Cc3c[nH]c4ccccc34)C(=O)N[C@@H](CCC(N)=O)C(N)=O)(C2)NC(=O)[C@H](C(C)C)NC(=O)[C@H](Cc2ccccc2)NC(=O)[C@H](C)NC(=O)[C@H](C)NC(=O)[C@H](CC(=O)O)NC(=O)[C@H](CC(=O)O)NC1=O (single isomer, unassigned) [I-83]",
    "ASSIGNED CATEGORY": "T"
  },
  {
    "MOLECULE": "CC[C@H](C)[C@@H]1NC(=O)[C@H](CC(=O)O)NC(=O)[C@]2(CC=CCCCC3(CCCC=CCCCCCC[C@@](C)(C(=O)N[C@@H](Cc4ccccc4)C(=O)N[C@@H](Cc4csc5ccccc45)C(N)=O)NC(=O)[C@H](CCC(N)=O)NC(=O)[C@H](Cc4ccccc4)NC(=O)[C@H](C)NC(=O)[C@H](C)NC(=O)[C@H](CCC(=O)O)NC(=O)[C@H](CC(=O)O)NC3=O)NC1=O)CCCN2C(C)=O (some centres unmarked) [I-409]",
    "ASSIGNED CATEGORY": "F"
  }
]

Data provenance is patent US20240116985A1.
